Biological target: Tubulin
Assay: Inhibition of tubulin polymerization
Assay type: functional, Homo sapiens
pIC50: −log10 of the molar value.
OBSERVABLE: pIC50

1) c1cnc(NCC2CCCO2)c(-c2nnc(Nc3ccc4c(c3)OCCO4)o2)c1 (centres undefined) = 5.77
2) c1ccc(CNc2ncccc2-c2nnc(Nc3ccc4c(c3)OCO4)o2)nc1 = 5.77
3) c1ccc(CNc2ccccc2-c2cnc(Nc3ccc4c(c3)OCCO4)o2)nc1 = 5.85
4) c1coc(CNc2ncccc2-c2nnc(Nc3ccc4c(c3)OCO4)o2)c1 = 5.31
5) c1cnc(NCc2ccc3c(c2)OCCO3)c(-c2nnc(Nc3ccc4c(c3)OCCO4)o2)c1 = 5.74
6) c1cnc(NCc2ccncc2)c(-c2nnc(Nc3ccc4c(c3)OCO4)o2)c1 = 6.00
7) c1coc(CNc2ncccc2-c2nnc(Nc3ccc4c(c3)OCCO4)o2)c1 = 5.70

====

Recorded AUC(0-t) at 4 h values for a group of molecules are listed next.
Assay: AUC (0-4 h) in mouse at 60 mg/kg, ip
Format: ADME, organism-based
Design: time < 4 hr, dose 60 mg/kg, route intraperitoneal
Conditions: plasma
OBSERVABLE: AUC(0-t) at 4 h (µM·h)

1. c1ccc(CNc2ccccc2-c2nnc(Nc3ccc4c(c3)OCCO4)o2)nc1 = 17.2
2. COc1cc(Nc2ncccc2-c2n[nH]c(Nc3ccc4c(c3)OCO4)n2)cc(OC)c1 = 13.6
3. c1ccc(CNc2ccsc2-c2nnc(Nc3ccc4c(c3)OCCO4)o2)nc1 = 102
